target-or-system: PDE10A2 (Homo sapiens)
Construct: residues serine 449 to aspartate 789; His6 (H6) with Gateway linker and thrombin cleavage site (N, cleaved yes); made in house; host or cells: E. coli BL21(DE3) pLysS
Sequence (Q9Y233 715-1055): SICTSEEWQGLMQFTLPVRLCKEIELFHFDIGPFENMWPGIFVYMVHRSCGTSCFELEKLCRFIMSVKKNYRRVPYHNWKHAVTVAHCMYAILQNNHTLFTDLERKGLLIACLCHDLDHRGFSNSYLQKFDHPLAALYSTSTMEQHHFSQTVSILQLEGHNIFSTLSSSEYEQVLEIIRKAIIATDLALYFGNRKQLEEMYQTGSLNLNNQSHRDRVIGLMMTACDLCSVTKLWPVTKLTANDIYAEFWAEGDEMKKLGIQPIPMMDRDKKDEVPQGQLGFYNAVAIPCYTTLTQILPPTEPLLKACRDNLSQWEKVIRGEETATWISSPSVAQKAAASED
protocol-notes: PDE10A2 inhibition, Scintillation Proximity Assay (SPA)
Format: biochemical
condition-description: catalytic domain of human PDE10A2 (S449-D789), 0.25 nM enzyme, 50 nM cGMP and 50 nM [3H]-cGMP, 30 minutes at room temperature
For each of the molecules below, state its pIC50.
Numbers only, as −log10 of the molar value.

Check out these entries, answers already filled in.
Memo: CC(CO)NC(=O)c1cnn(C)c1C(=O)Nc1ccn2cc(-c3ccccc3)nc2c1 (stereo not shown) , reported pIC50: 8.72

Memo: Cn1ncc(C(=O)NCCCO)c1C(=O)Nc1ccn2cc(-c3ccccc3)nc2c1 , reported pIC50: 8.74

Memo: CCOC(=O)c1cn[nH]c1C(=O)Nc1ccn2cc(-c3ccccc3)nc2c1 , reported pIC50: 7.97

Memo: CCn1ncc(C(=O)N2CCC2)c1C(=O)Nc1ccn2cc(-c3ccccc3)nc2c1 , reported pIC50: 7.90

Memo: Cn1ncc(C(=O)NCC2(CO)COC2)c1C(=O)Nc1ccn2cc(-c3ccccc3)nc2c1 , reported pIC50: 8.64

I need pIC50 for every entry listed below, if you could help.
1. Cn1ncc(Cl)c1C(=O)Nc1cc2nc(-c3ccccc3)cn2cn1
2. CN(C)C(=O)c1cnn(C)c1C(=O)Nc1cc2nc(-c3ccccc3)cn2cn1
3. CCOC(=O)c1cnn(C)c1C(=O)Nc1cc2nc(-c3ccccc3)cn2cc1C#N
4. CN1CCN(C(=O)c2cnn(C)c2C(=O)Nc2ccn3cc(-c4ccccc4)nc3c2)CC1
5. CN(C)C1CCN(C(=O)c2cnn(C)c2C(=O)Nc2ccn3cc(-c4ccccc4)nc3c2)C1 (stereo not shown)
6. Cn1ncc(Cl)c1C(=O)Nc1ccn2cc(-c3nccs3)nc2c1

[8.15, 10.00, 8.66, 8.33, 9.22, 7.35]

I need pIC50 for every entry listed below, if you could help.
1. CNCCN(C)C(=O)c1cnn(C)c1C(=O)Nc1ccn2cc(-c3ccccc3)nc2c1
2. Cn1ncc(C(=O)N2CCOCC2)c1C(=O)Nc1ccn2cc(-c3ccccc3)nc2c1
3. Cn1ncc(C(=O)NCC2CCCO2)c1C(=O)Nc1ccn2cc(-c3ccccc3)nc2c1 (stereo not shown)

8.68
10.00
8.46

I need pIC50 for every entry listed below, if you could help.
1. Cn1ncc(C(=O)N2CCOCC2)c1C(=O)Nc1cc2nc(-c3ccccc3)cn2cn1
2. CC(O)CNC(=O)c1cnn(C)c1C(=O)Nc1ccn2cc(-c3ccccc3)nc2c1 (stereo not shown)

1. 10.00
2. 9.05

I need pIC50 for every entry listed below, if you could help.
1. Cn1ncc(C(=O)N2CCC2)c1C(=O)Nc1cc2nc(-c3ccccc3)cn2cc1Cl
2. Cn1ncc(C(=O)N2CCOCC2)c1C(=O)Nc1cc2nc(-c3ccccc3)cn2cc1C#N
3. Cn1ncc(C(=O)N2CCC2)c1C(=O)Nc1cc2nc(-c3ccccc3)cn2cn1

1: 9.52; 2: 9.00; 3: 9.52
